Organism: Rattus norvegicus
methodSummary: Open TG-GATES - Regimen: Single
Type: toxicity, organism-based, Sprague-Dawley
Set-up: regimen Single, gender Male, age 6 weeks
conditionsUsed: in vivo, po, 0 mg/kg, 6 h, tissue Blood, route gavage, dose level Control
Please note: TRUE applies when Ht is 40% or greater, and FALSE applies otherwise.

| molecule | cat |
| --- | --- |
| Nc1nc(N)c2nc(-c3ccccc3)c(N)nc2n1 | TRUE |
| CCc1oc2ccccc2c1C(=O)c1cc(I)c(O)c(I)c1 | TRUE |
| C[C@]12CCC(=O)C=C1CC[C@@H]1[C@@H]2CC[C@@]2(C)[C@H]1CC[C@]2(C)O | FALSE |
| Oc1ncnc2[nH]ncc12 | TRUE |
| CCN1CCCC1CNC(=O)c1cc(S(N)(=O)=O)ccc1OC (stereo unspecified) [SULPIRIDE] | TRUE |

---

Species on record: Rattus norvegicus
methodSummary: Open TG-GATES - Regimen: Single
Assay type: toxicity, organism-based, Sprague-Dawley
Design: regimen Single, gender Male, age 6 weeks
conditionsUsed: in vivo, po, 0 mg/kg, 6 h, tissue Blood, route gavage, dose level Control
propertyName: WBC (x10_2/uL)

| compound | propertyName | recordedValue |
| --- | --- | --- |
| CN1C(=O)OC(C)(C)C1=O [TRIMETHADIONE] | WBC | 78 |
| CC(C)(S)[C@@H](N)C(=O)O [PENICILLAMINE] | WBC | 87.2 |
| O=C(O)c1cccnc1 [NIACIN] | WBC | 105.2 |
| CCSCC[C@H](N)C(=O)O [ETHIONINE] | WBC | 79.1 |
| CCN1CCCC1CNC(=O)c1cc(S(N)(=O)=O)ccc1OC (stereo unspecified) [SULPIRIDE] | WBC | 87.4 |
| C[C@](N)(Cc1ccc(O)c(O)c1)C(=O)O [METHYLDOPA] | WBC | 82.2 |

---

Organism: Rattus norvegicus
methodSummary: Open TG-GATES - Regimen: Daily Repeat
Assay type: toxicity, organism-based, Sprague-Dawley
Design: regimen Daily Repeat, gender Male, age 6 weeks
conditionsUsed: in vivo, po, 300 mg/kg, […], tissue Plasma, route gavage, dose level Middle, time 7 day
Collected ALT values appear next to each entry.
propertyName: ALT (IU/L)

| compound | propertyName | recordedValue |
| --- | --- | --- |
| CCN1CCCC1CNC(=O)c1cc(S(N)(=O)=O)ccc1OC (centres undefined) [SULPIRIDE] | ALT | 46.8 |
| O=C(O)c1cccnc1 | ALT | 47.8 |
| CC(C)(S)[C@@H](N)C(=O)O | ALT | 38.6 |
| O=C(N[C@H](CO)[C@H](O)c1ccc([N+](=O)[O-])cc1)C(Cl)Cl | ALT | 56.8 |

---

Species: Rattus norvegicus
methodSummary: Open TG-GATES - Regimen: Daily Repeat
Format: toxicity, organism-based, Sprague-Dawley
Design: regimen Daily Repeat, gender Male, age 6 weeks
conditionsUsed: in vivo, po, 0 mg/kg, […], tissue Blood, route gavage, dose level Control, time 7 day

| molecule | Plat / x10_4/uL |
| --- | --- |
| CCN1CCCC1CNC(=O)c1cc(S(N)(=O)=O)ccc1OC (stereo not given) [SULPIRIDE] | 131 |
| CCSCC[C@H](N)C(=O)O | 123.3 |
| CN1C(=O)OC(C)(C)C1=O | 123.3 |
| C[C@]12CCC(=O)C=C1CC[C@@H]1[C@@H]2CC[C@@]2(C)[C@H]1CC[C@]2(C)O | 136.7 |
| CC(C)C(=O)Nc1ccc([N+](=O)[O-])c(C(F)(F)F)c1 [FLUTAMIDE] | 133.9 |

meta.source: ChEMBL document CHEMBL3885861
